target: rat PMEL17 (rat, UniProt D3ZED8 73-680); experiment: FACS titration of IgG on HKB11-rat PMEL17 cells, Alexa Fluor detection antibody
Sequence (D3ZED8 entry or part of it): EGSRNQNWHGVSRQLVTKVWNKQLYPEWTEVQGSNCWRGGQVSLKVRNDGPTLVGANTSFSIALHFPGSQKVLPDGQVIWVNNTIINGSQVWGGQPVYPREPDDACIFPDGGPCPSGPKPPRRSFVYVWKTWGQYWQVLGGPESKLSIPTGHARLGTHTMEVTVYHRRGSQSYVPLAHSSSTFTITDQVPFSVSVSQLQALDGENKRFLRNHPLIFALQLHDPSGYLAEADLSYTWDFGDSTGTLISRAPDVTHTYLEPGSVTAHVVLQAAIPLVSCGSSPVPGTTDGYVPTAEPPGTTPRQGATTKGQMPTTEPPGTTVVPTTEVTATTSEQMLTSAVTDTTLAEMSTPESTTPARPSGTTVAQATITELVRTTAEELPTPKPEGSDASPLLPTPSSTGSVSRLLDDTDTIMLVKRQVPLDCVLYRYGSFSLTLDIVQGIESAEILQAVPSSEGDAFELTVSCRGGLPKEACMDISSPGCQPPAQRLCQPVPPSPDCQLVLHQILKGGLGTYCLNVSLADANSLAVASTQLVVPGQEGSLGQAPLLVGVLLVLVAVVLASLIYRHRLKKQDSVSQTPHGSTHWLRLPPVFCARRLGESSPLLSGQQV
observable: log10 of EC50 (log10 of the value in nM)
Log scale reminder: EC50 in nM, then log10 taken.

binder	log10 of EC50
Y010903 (antibody, V domains shown, Tested as purified human IgG) VH: EVQLVESGGGLVKPGGSLRLSCAASGFTFSNAWMSWVRQAPGKGLEWVGRIKSKTDAGTTDYAAPVKGRFTISRDDSKNTLYLQMNSLKTEDTAVYYCARASHRLHSLFDVWGQGTLVTVSS VL: DIQMTQSPSTLSASVGDRVTITCRASQSISSWLAWYQQKPGKAPKLLIYDASSLESGVPSRFSGSGSGTEFTLTISSLQPEDFATYYCQQGLFYPHTFGQGTKVEIK	0.75

Task: # return recorded log10 of EC50 for entry MOR024354 (antibody, V domains shown, Tested as purified human IgG) VH: QVQLLESGGGLVQPGGSLRLSCAASGFTFSSFGMSWVRQAPGKGLEWVSAISYSGSDTYYADSVKGRFTISRDNSKNTLYLQMNSLRAEDTAVYYCARDVGVMDYWGQGTLVTVSS VL: SYELTQPLSVSVALGQTARITCSGDNLGTYYAHWYQQKPGQAPVLVIYSQSHRPSGIPERFSGSNSGNTATLTISRAQAGDEADYYCGAWDAPSPELVFGGGTKLTVL
Result: 0.38

Task: # return recorded log10 of EC50 for entry Y010910 (antibody, V domains shown, Tested as purified human IgG) VH: EVQLVESGGGLVKPGGSLRLSCAASGFTFSNAWMSWVRQAPGKGLEWVGRIKSKTDAGTTDYAAPVKGRFTISRDDSKNTLYLQMNSLKTEDTAVYYCARVASPSAPGGFDYWGQGTLVTVSS VL: DIQMTQSPSSLSASVGDRVTITCRASQGISNYLAWYQQKPGKVPKLLIYAASTLQSGVPSRFSGSGSGTDFTLTISSLQPEDVATYYCQQSLFAPFTFGQGTKVEIK
Result: 1.14

Task: # return recorded log10 of EC50 for entry Y010356 (antibody, V domains shown, Tested as purified human IgG) VH: EVQLVESGGGLVKPGGSLRLSCAASGFTFSNYWISWVRQAPGKGLEWVGRIKSKTYGGTTDYAEPVKGRFTISRDDSKNTLYLQMNSLKTEDTAVYYCARVSGYYSHSGGFDVWGQGTLVTVSS VL: DIQMTQSPSSLSASVGDRVTITCRASQGISNYLAWYQQKPGKVPKLLIYAASTLQSGVPSRFSGSGSGTDFTLTISSLQPEDVATYYCQKTWRTPGTFGQGTKVEIK
Result: 0.15

Task: # return recorded log10 of EC50 for entry Y010906 (antibody, V domains shown, Tested as purified human IgG) VH: EVQLVESGGGLVKPGGSLRLSCAASGFTFSNAWMSWVRQAPGKGLEWVGRIKSKTDAGTTDYAAPVKGRFTISRDDSKNTLYLQMNSLKTEDTAVYYCARDEYPWGWFDVWGQGTLVTVSS VL: DIQMTQSPSSVSASVGDRVTITCRASQGISSWLAWYQQKPGKAPKLLIYAASSLQSGVPSRFSGSGSGTDFTLTISSLQPEDFATYYCQQYIFYPLTFGQGTKVEIK
Result: 1.34

Every entry's value here was drawn from patent US20240189439A1.
